tested on: DLD-1; test: NCI tumour cell line growth inhibition, 48 h
The source made the active and inactive calls. No stated cut-off is given here; in the data, active = GI50 up to about 1.1 µM and inactive = higher.
assayReadout: GI50

Consider the following illustrative entries.
CCOC(=O)c1ncn2c1[nH]c(=S)c1ccccc12
> 100 µM (inactive)
COC(CN1C(=O)c2cccc3cccc(c23)C1=O)OC
> 100 µM (inactive)
CC(=O)OCC1OC(N2C(=O)[C@@H](Oc3ccccc3)[C@H]2/C=C/c2ccccc2)C(OC(C)=O)C(OC(C)=O)C1OC(C)=O (some centres undefined)
> 100 µM (inactive)
O=C(CN(c1ccccc1)c1ccccc1)N1c2ccccc2C2C=CC=CC21 (centres undefined)
25.6 µM (inactive)
COC(=O)C1=CC2OC1(C)C1(CC1)C2=O (centres undefined)
14.3 µM (inactive)

Quick one: GI50 for O=C(c1ccc(Cl)cc1Cl)C1[C@H]2C(=O)N(c3ccc(Cc4ccc(N5C(=O)[C@@H]6ON(c7ccccc7)C(C(=O)c7ccc(Cl)cc7Cl)[C@@H]6C5=O)cc4)cc3)C(=O)[C@H]2ON1c1ccccc1 (some centres undefined) ?
> 50 µM (inactive)

Quick one: GI50 for COc1ccccc1NC(=O)C1=C(C)NC(C)=C(C(=O)Nc2ccccc2OC)C1c1ccccc1OC ?
> 100 µM (inactive)

Quick one: GI50 for C[N+]1=C(c2cccnc2/C=N/O)OCC1(C)C ?
> 100 µM (inactive)

Quick one: GI50 for COc1cc2c(oc(=O)c3cc4ccoc4c(OC)c32)c2cccc(O)c12 ?
> 100 µM (inactive)

---

system: BT-549; assay: NCI tumour cell line growth inhibition, 48 h
The source made the active and inactive calls. No stated cut-off is given here; in the data, active = GI50 up to about 1.1 µM and inactive = higher.
assayReadout: GI50

Consider the following illustrative entries.
N[C@@H](CCC(=O)NC(Cc1ccccc1)C(=O)NCP(=O)(O)O)C(=O)O (stereo partly specified)
61.8 µM (inactive)
CCCCOCCOCCOC1=CC(=O)c2c(O)ccc(O)c2C1=O
1.77 µM (inactive)

Quick one: GI50 for COC(=O)c1cn(CCCC(=O)O)nn1 ?
> 100 µM (inactive)

Quick one: GI50 for CCOC(=O)c1nnsc1NC(=O)Nc1ccc(Cl)cc1 ?
> 100 µM (inactive)

Quick one: GI50 for COC(=O)C[C@H](CCSC)NC(=O)C[C@H](CCSC)NC(=O)C[C@H](CCSC)NC(=O)OC(C)(C)C ?
69.3 µM (inactive)

Quick one: GI50 for COc1cccc2c1OCC1Cc3ccccc3OC21 (stereo unspecified) ?
19.1 µM (inactive)

Quick one: GI50 for COc1ccccc1Nc1nc(N)nc(N)c1N ?
> 100 µM (inactive)

Quick one: GI50 for S=C1SC(=N\c2ccccc2)/C(=N/c2ccccc2)N1c1ccc2ccccc2c1 ?
> 100 µM (inactive)

Quick one: GI50 for O=C1CC(=O)c2c(Cl)sc(Cl)c21 ?
> 100 µM (inactive)

Quick one: GI50 for Cc1occc1C(=S)Nc1ccc(Cl)c(C(=O)OC(C)C2CC2)c1 (stereo unspecified) ?
22.5 µM (inactive)

Quick one: GI50 for COc1ccc(-c2cc(-c3ccncc3)nc(N)c2-c2ccc(F)cc2)cc1 ?
37.4 µM (inactive)

---

system: OVCAR-3; experiment: NCI tumour cell line growth inhibition, 48 h
Activity calls are given as the source filed them. Cut-off read from the data, not from the text of the source: active = GI50 up to about 1.1 µM and inactive = higher.
One label from this list, please: yes (1) (active), no (0) (inactive)

NC(=S)N/N=C1\CCCC\C1=C/c1ccccc1
no (0)
COC(=O)c1ccc(OCc2ccc3nc(-c4ccccc4)c(Cl)nc3c2)cc1
no (0)
CCOC(=O)/C(=C\c1c[nH]c2ccccc12)P(=O)(OCC)OCC
no (0)

How was N#Cc1nc(C(F)(F)F)oc1N classified in this test?
no (0)

How was O=C1c2ccccc2C(=O)N1CCCCCCNOCCCN1C(=O)c2ccccc2C1=O classified in this test?
no (0)

How was Cc1cc(O)nc(NN2C(Cl)C(=O)C2c2ccccc2O)n1 (configuration not stated) classified in this test?
yes (1)
